Exercise: for every item that follows, state its recorded Kd.
Molecular target: LgTrip 3546 (with His tag; SEQ ID NO: 51)
Sequence (chain, as listed by the source): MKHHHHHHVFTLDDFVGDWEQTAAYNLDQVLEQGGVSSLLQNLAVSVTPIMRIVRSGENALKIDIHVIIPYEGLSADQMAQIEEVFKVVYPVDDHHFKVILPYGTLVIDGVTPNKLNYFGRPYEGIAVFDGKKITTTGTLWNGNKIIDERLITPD
Assay: luminescence complementation
Conditions: modification not given
Numbers only, in nM.

Please look at the items below and tell me Kd for each one, in order.
1. GKMLFRVTIGKWK [668]
2. GKMKFRVTIQSWK [716]
3. DKLLFKVTIQKWK [746]
4. DKMLFKVTIGKWK [748]
5. EKMLFRVTIEKWK [707]
6. EKMLFKVTIQKWK [714]
7. DKMLFKVTIEKWK [752]
8. DKMLFTVTIQKWK [745]

1: 130; 2: 290; 3: 1100; 4: 440; 5: 1120; 6: 220; 7: 320; 8: 160
